Quick reference: denaturant midpoint (higher = more stable) of the listed items.
B1: Lysozyme C, P61626 (parent)
chain: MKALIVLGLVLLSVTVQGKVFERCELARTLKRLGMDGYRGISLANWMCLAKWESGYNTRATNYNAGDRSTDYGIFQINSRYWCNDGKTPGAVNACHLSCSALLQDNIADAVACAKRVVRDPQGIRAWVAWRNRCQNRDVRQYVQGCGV

# Variants of: B1
# settings: Homo sapiens; pH 3; 25 °C; GdnHCl; CD; glycine-HCl 40 mM; reversible: yes (100%); structure 1LZ1; whole UniProt chain shown
The answer is to be given in M; state only the numeric part.

>>> df
   mutation_list  quantitative_result
0           A65P                  3.3
1     P89G P121G                 2.64
2          P121G                 2.95
3          D109P                 2.78
4          V128P                 3.05

Give reported denaturant midpoint (higher = more stable) value for P89G 2.63
